Experiment: Stability against liver microsomes
Format: in vitro ADME, human
Conditions: 2 μM, 37° C., 24 h
Give measured % degradation in 24 h when incubated with liver microsomes for each item. Keep answers brief.
One number for each entry, in %.

Use these answered entries as a reference point.
>>> readoutvalue("CCc1cc(OC)ccc1-c1ccc(CC(NC(=O)[C@H](CC(=O)O)NC(=O)[C@H](CO)NC(=O)[C@@H](NC(=O)[C@H](Cc2ccccc2)NC(=O)[C@@H](NC(=O)CNC(=O)[C@H](CCC(N)=O)NC(=O)C2(NC(=O)[C@@H](N)Cc3c[nH]cn3)CC2)[C@@H](C)O)[C@@H](C)O)C(=O)NC(Cc2ccc(-c3ccccc3C)cc2)C(N)=O)cc1 (single isomer, unassigned)")
82
>>> readoutvalue("CCc1cc(OC)ccc1-c1ccc(CC(NC(=O)[C@H](CC(=O)O)NC(=O)[C@H](CO)NC(=O)[C@@H](NC(=O)[C@H](Cc2ccccc2)NC(=O)[C@@H](NC(=O)CNC(=O)[C@H](CCC(N)=O)NC(=O)C(C)(C)NC(=O)[C@@H](N)Cc2c[nH]cn2)[C@@H](C)O)[C@@H](C)O)C(=O)NC(Cc2ccc(-c3ccccc3C(F)(F)F)cc2)C(N)=O)cc1 (single isomer, unassigned)")
84

Kindly consider the entry below.
Please give the measured % degradation in 24 h when incubated with liver microsomes for this molecule: CCc1cc(OC)ccc1-c1ccc(CC(NC(=O)[C@H](CC(=O)O)NC(=O)[C@H](CO)NC(=O)[C@@H](NC(=O)C(C)(Cc2ccccc2F)NC(=O)[C@@H](NC(=O)CNC(=O)[C@H](CCC(N)=O)NC(=O)[C@H](CO)NC(=O)[C@@H](N)Cc2c[nH]cn2)[C@@H](C)O)[C@@H](C)O)C(=O)NC(Cc2ccc(-c3ccccc3C)nc2)C(N)=O)cc1 (single isomer, unassigned)
81

====

Test: Stability in simulated intestinal fluid
Assay type: in vitro ADME
Details: 2 μM, 37° C., 24 h, pH 7.5
measurementKind: % degradation in 24 h when incubated with simulated intestinal fluid (%)
Give bare numbers, in %.

# example entries with known answers
>>> readoutvalue("CCc1cc(OC)ccc1-c1ccc(CC(NC(=O)[C@H](CC(=O)O)NC(=O)[C@H](CO)NC(=O)[C@@H](NC(=O)[C@H](Cc2ccccc2)NC(=O)[C@@H](NC(=O)CNC(=O)[C@H](CCC(N)=O)NC(=O)C(C)(C)NC(=O)[C@@H](N)Cc2c[nH]cn2)[C@@H](C)O)[C@@H](C)O)C(=O)NC(Cc2ccc(-c3ccccc3F)cc2)C(N)=O)cc1 (single isomer, unassigned)")
"00"
>>> readoutvalue("CCc1cc(OC)ccc1-c1ccc(CC(NC(=O)[C@H](CC(=O)O)NC(=O)[C@H](CO)NC(=O)[C@@H](NC(=O)C(C)(Cc2ccccc2F)NC(=O)[C@@H](NC(=O)CNC(=O)[C@H](CCC(N)=O)NC(=O)[C@H](CO)NC(=O)[C@@H](N)Cc2c[nH]cn2)[C@@H](C)O)[C@@H](C)O)C(=O)NC(Cc2ccc(-c3ccccc3C)nc2)C(N)=O)cc1 (single isomer, unassigned)")
45

Now look at this entry.
Need % degradation in 24 h when incubated with simulated intestinal fluid, item CCc1cc(OC)ccc1-c1ccc(CC(NC(=O)[C@H](CC(=O)O)NC(=O)[C@H](CO)NC(=O)[C@@H](NC(=O)[C@H](Cc2ccccc2)NC(=O)[C@@H](NC(=O)CNC(=O)[C@H](CCC(N)=O)NC(=O)C(C)(C)NC(=O)[C@@H](N)Cc2c[nH]cn2)[C@@H](C)O)[C@@H](C)O)C(=O)NC(Cc2ccc(-c3ccccc3C)nc2)C(N)=O)cc1 (single isomer, unassigned)
00
